- system.name: human recombinant ATX (Homo sapiens, UniProt Q13822)
- assay.text: Enzyme inhibition test (choline release from LPC, Amplex UltraRed fluorescence)
- test.parameters: 200 μM LPC substrate, 1 hr at room temperature, read-out: Experimental Example 1 human ATX IC50
We begin with a simple list: items and their reported pIC50.
Units for pIC50: none; it is -log10 of a concentration expressed in mol/L.

Known pIC50 results, listed for orientation:
O=C(O)c1ccc2c(c1)N(c1cncc(OC[C@H]3CC[C@H](C(F)(F)F)CC3)c1)CC2 :: 9.00
O=C(O)c1cncc(C2CN(c3cncc(OCc4ccc(OC(F)(F)F)cc4)c3)CCO2)c1 (centres unmarked) :: 9.00

Request: Give pIC50 for the following compound: "O=C(O)c1ccc2c(c1)N(c1cncc(OCc3ccc(OC(F)(F)F)cc3)c1)CC2"
Response: 8.10

Request: Give pIC50 for the following compound: O=C(O)CCC1CCCN(c2cncc(OCc3ccc(OC(F)(F)F)cc3)c2)C1 (centres unmarked)
Response: 7.62

---

- system.name: human recombinant ATX (Homo sapiens, UniProt Q13822)
- assay.text: Enzyme inhibition test (choline release from LPC, Amplex UltraRed fluorescence)
- test.parameters: 200 μM LPC substrate, 1 hr at room temperature, read-out: Experimental Example 1 human ATX IC50
We begin with a simple list: items and their reported IC50.
Write down the numeric answer in nM and omit the unit.

Known IC50 results, listed for orientation:
COc1ccc(-c2cnnc(COc3ccc(C(F)(F)F)cc3)c2)cc1[C@@H]1C[C@H]1C(=O)O (relative stereo) :: 35
O=C(O)[C@H]1C[C@@H]1c1cccc(-c2cncc(OC[C@H]3CC[C@H](C(F)(F)F)CC3)c2)n1 :: 2
O=C(O)c1ccc(C2CN(c3cncc(OC[C@H]4CC[C@H](C(F)(F)F)CC4)c3)CCO2)cc1 (some centres unmarked) :: 7
COc1ccc(-c2cncc(OCc3ccc(OC(F)(F)F)cc3)c2)nc1[C@H]1C[C@@H]1C(=O)O :: 5
O=C(O)CC1CCCN(c2cncc(OCc3ccc(OC(F)(F)F)cc3)c2)C1 (centres unmarked) :: 57

Request: Give IC50 for the following compound: "CC1(C)CCC(COc2cncc(N3CCO[C@@H](CCC(=O)O)C3)c2)CC1"
Response: 10

Request: Give IC50 for the following compound: O=C(O)CCCC1CN(c2cncc(OCc3ccc(OC(F)(F)F)cc3)c2)CCO1 (centres unmarked)
Response: 32

Request: Give IC50 for the following compound: "O=C(O)[C@@H]1C[C@H]1c1cc(-c2cncc(OCc3ccc(OC(F)(F)F)cc3)c2)ccn1"
Response: 25

---

We begin with a simple list: items and their reported pIC50.
- system.name: human recombinant ATX (Homo sapiens)
- assay.text: Enzyme inhibition test (choline release from LPC, Amplex UltraRed fluorescence)
- test.parameters: 200 μM LPC substrate, 1 hr at room temperature, read-out: Experimental Example 1 human ATX IC50
Units for pIC50: none; it is -log10 of a concentration expressed in mol/L.

O=C(O)c1ccc2c(c1)CCN2c1cncc(OC[C@H]2CC[C@H](C(F)(F)F)CC2)c1 [Example 12] :: 9.00
COc1ccc(-c2cncc(CCc3ccc(OC(F)(F)F)cc3)c2)nc1[C@H]1C[C@@H]1C(=O)O [Example 6] :: 8.40
O=C(O)c1ccc2c(c1)CCN2c1cncc(OCC2CCN(CC(F)(F)F)CC2)c1 [Example 39] :: 8.15
C[C@@]1(C(=O)O)C[C@H]1[C@H]1CN(c2cncc(OC[C@H]3CC[C@H](C(F)(F)F)CC3)c2)CCO1 (relative stereo) [Example 20] :: 8.70
O=C(O)/C=C/C1CCCN1c1cncc(OCc2ccc(OC(F)(F)F)cc2)c1 (stereo not shown) [Example 101] :: 6.95

Request: Recall the reported pIC50 of O=C(O)[C@H]1C[C@@H]1c1cc(-c2cncc(OC[C@H]3CC[C@H](C(F)(F)F)CC3)c2)ccn1 [Example 9-1] when tested on human recombinant ATX (Homo sapiens).
Response: 8.70

Request: Recall the reported pIC50 of O=C(O)CC[C@H]1CN(c2cncc(OC[C@H]3CC[C@H](C(F)(F)F)CC3)c2)CCO1 [Example 16] when tested on human recombinant ATX (Homo sapiens).
Response: 7.89
